t1/2 values by entry
test: Half life in CD-1 mouse liver microsomes; type: ADME, Microsome
Field: numeric (h). Do not append units.

Please review the entries below; each comes with its answer.
CC(C(=O)Nc1ccc2cc[nH]c2c1)c1cccc(C(=O)c2ccccc2)c1 (centres undefined): 2.8
CC(CNC(=O)c1ccc2[nH]ccc2c1)c1cccc(C(=O)c2ccccc2)c1 (centres undefined): 0.6
CCCN(C(=O)C(C)c1cccc(C(=O)c2ccccc2)c1)c1ccc2[nH]ccc2c1 (centres undefined): 0.8

# input # t1/2 lookup, item CCCN(C(=O)C(C)c1cccc(C(=O)c2ccccc2)c1)c1ccc2cc[nH]c2c1 (centres undefined)
# output 1.8
